# PROCEDURE_TEXT: qHTS RealTime-Glo MT Cell Viability Assay in HEK293 cells - 32 hour (AID 1224868); also: top concentration of the series differs between compounds; % is scaled to controls: 0 for no effect and ±100 for the full control effect; nearly all actives have a fitted effect of over 50% in size
# CONDITION_LABEL: RealTime-Glo luminescence; series mostly up to 76.8 µM
# Description: National Center for Advancing Translational Sciences [NCATS] NIH Chemical Genomics Center [NCGC] U.S. Environmental Protection Agency [EPA] National Institutes of Environmental Health Sciences [NIEHS] National Toxicology Program [NTP] U.S. Food and Drug Administration [FDA] Measure of cell viability is critical in the cell-base assay. Analysis of cell viability is necessary for the characterization of cell responses to cytotoxic drugs and environmental stress. […]
Records with an inconclusive call do not appear. Calls of active or inactive are those of the source. Calls follow the shape of the dose curve; as a rule, active = well fitted cell-killing curve with a large enough effect in the repeat runs; inconclusive = weak or mixed curves, or effect the other way; inactive = flat fitted curve, though single readings scatter.
Listed here are compounds together with their documented activity change, negative = cytotoxic.
TEST_READOUT: activity change, negative = cytotoxic

>>> result("COC=O")
"18.9% [at 6.97 µM] (inactive)"
>>> result("O=C(O)c1ccc2c(c1)nc(C(=O)NC1CCN(C3CC3)CC1)n2Cc1cc(-c2ccc(Cl)s2)on1")
"-0.224% [at 15.8 µM] (inactive)"
>>> result("CCCCCCCCCCCCCCCCCCCl")
"-2.36% [at 6.97 µM] (inactive)"
>>> result("c1ccc(-c2ccc(-c3ccccc3)cc2)cc1")
"0.807% [at 15.8 µM] (inactive)"

* * *

# PROCEDURE_TEXT: A CellTox Green Cytotoxicity Assay to monitor cytotoxicity in HEK293 cells - 16 hour (AID 1224888); also: nearly all actives have a fitted effect of over 35% in size
# CONDITION_LABEL: CellTox Green fluorescence; series mostly up to 76.8 µM
# Excerpt: National Center for Advancing Translational Sciences [NCATS] NIH Chemical Genomics Center [NCGC] U.S. Environmental Protection Agency [EPA] National Institutes of Environmental Health Sciences [NIEHS] National Toxicology Program [NTP] Cell-based models are critical for drug discovery. […] Viable cells produce no appreciable increases in fluorescence. Therefore, the fluorescence signal produced by the binding interaction with dead cell DNA is proportional to cytotoxicity. […]
Inconclusive results are not listed. Activity calls are given as the source filed them. Calls come from the whole dose curve; as a rule, active = well fitted activation curve with a large enough effect in the repeat runs; inconclusive = weak or mixed curves; inactive = flat fitted curve, though single readings scatter.
Outcomes: yes (1) (active), no (0) (inactive)

>>> label("CCC(C)CCCC(C)(C)O (configuration not stated)")
"no (0)"
>>> label("O=C(c1ccc(Cl)cc1)c1ccc(Cl)cc1")
"no (0)"
>>> label("CCCCCCCCCC(C)C=O (configuration not stated)")
"yes (1)"
>>> label("CC(CC(C#N)(c1ccccc1)C(C)C)N(C)C (configuration not stated)")
"no (0)"
>>> label("O=C(O)c1ccncc1")
"no (0)"
>>> label("CC1(C)C(=O)NC(=O)N1CO")
"no (0)"
>>> label("CC1(COc2ccc(CC3SC(=O)NC3=O)cc2)CCCCC1 (configuration not stated)")
"no (0)"
>>> label("CCN(CCCCOC(=O)c1ccc(OC)c(OC)c1)C(C)Cc1ccc(OC)cc1 (configuration not stated)")
"no (0)"
>>> label("Cc1c(Cl)cccc1[N+](=O)[O-]")
"no (0)"
>>> label("CCC(=O)O[C@]1(C(=O)COC)[C@@H](C)C[C@H]2[C@@H]3CCC4=CC(=O)C=C[C@]4(C)C3(F)[C@@H](O)C[C@@]21C (some centres not stated)")
"no (0)"
>>> label("Cc1c(Nc2ncccc2C(=O)O)cccc1C(F)(F)F")
"no (0)"
>>> label("O=C1c2ccccc2C(=O)c2c1ccc(O)c2O")
"no (0)"
>>> label("C/C=C1\\[C@H]2C=C(C)C[C@]1(N)c1ccc(=O)[nH]c1C2")
"no (0)"
>>> label("O=C(O)COCC(=O)O")
"no (0)"
>>> label("CCC(C)C1N=C(C)C(C)S1 (configuration not stated)")
"no (0)"
>>> label("CC(O)CN (configuration not stated)")
"no (0)"
>>> label("CCn1nc(Cc2ccccc2)cc1C1CCN(C[C@H]2C[C@H](N(C)[C@@H](C(=O)O)C(C)C)C[C@@H]2c2cccc(F)c2)CC1")
"no (0)"
>>> label("CC(=O)Nc1ccccc1O")
"no (0)"
>>> label("CC(=O)Nc1ccn(C2COC(COC(=O)c3ccccc3)O2)c(=O)n1 (configuration not stated)")
"no (0)"
>>> label("O=c1[nH][nH]c2ccccc12")
"no (0)"
>>> label("OCCc1ccncc1")
"no (0)"
>>> label("Cc1ccc(Cl)c(OCC(O)CNC(C)(C)C)c1 (configuration not stated)")
"no (0)"
>>> label("CC(O)C(C)O (configuration not stated)")
"no (0)"
>>> label("CCCCCCCCCCCCCCCCN")
"yes (1)"
>>> label("Clc1cccc(C(c2ccc3nc[nH]c3c2)n2ccnc2)c1 (configuration not stated)")
"no (0)"
>>> label("CC1(C)CC(=O)CC(C)(C)N1")
"no (0)"
>>> label("NC(=O)c1cc[n+](CC2=C(C(=O)[O-])N3C(=O)[C@@H](NC(=O)Cc4cccs4)[C@H]3SC2)cc1")
"no (0)"

* * *

# PROCEDURE_TEXT: qHTS assay to identify small molecule agonists of the progesterone receptor (PR) signaling pathway - cell viability counter screen (AID 1346799); also: nearly all actives have a fitted effect of over 45% in size
# CONDITION_LABEL: PR-UAS-bla HEK293T viability, CellTiter-Glo luminescence, 16 h; series mostly up to 92.4 µM
Results filed as inconclusive are left out. Calls of active or inactive are those of the source. Calls come from the whole dose curve.
Possible outcomes: T (active), F (inactive)

>>> label("Oc1ccc(CCNCCCCCCNCCc2ccccc2)cc1O")
"F"
>>> label("CC1=C(C)C(=O)C(C(CCCCCC(=O)O)c2ccccc2)=C(C)C1=O (configuration not stated)")
"F"
>>> label("CCCc1ccc(OC)cc1")
"F"
>>> label("O=C(O)c1ccccc1[N+](=O)[O-]")
"F"
>>> label("CCc1cnc(C(=O)O)c(C(=O)O)c1")
"F"
>>> label("C[Si](C)(C)O[Si](C)(C)O[Si](C)(C)C")
"F"
>>> label("c1ccc(CN(Cc2ccccc2)Cc2ccccc2)cc1")
"F"
>>> label("Cc1c(Cl)cccc1[N+](=O)[O-]")
"F"
>>> label("CC(C)(O)C(=O)O")
"F"
>>> label("Sc1nc(S)nc(S)n1")
"F"
>>> label("CCCCCCCCCCCC(=O)OCC")
"F"
>>> label("CCOc1ccc2c(c1)C(C)CC(C)(C)N2 (configuration not stated)")
"F"
>>> label("c1ccc(CCNc2nc(-c3ccccc3)cs2)cc1")
"F"
>>> label("O=C(c1ccco1)N1CCNCC1")
"F"
>>> label("O=C(OCCCCCOC(=O)c1ccccc1)c1ccccc1")
"F"
>>> label("CCOCCn1c(N2CCCN(C)CC2)nc2ccccc21")
"F"
>>> label("Cc1ccc2c(Cl)cc(Cl)c(O)c2n1")
"F"
>>> label("CCOc1ccccc1O")
"F"
>>> label("OCCCO")
"F"
>>> label("CC(=O)Nc1ccn(C2COC(COC(=O)c3ccccc3)O2)c(=O)n1 (configuration not stated)")
"F"
>>> label("C1CCN(CN2CCCCC2)CC1")
"F"
>>> label("CCCCCCCCCCCCN1CCOCC1")
"F"
>>> label("CCCCCCCCCCCCSC#N")
"F"
>>> label("N#C[C@@H]1CC(F)(F)CN1C(=O)CNC1CC2CCC(C1)N2c1ncccn1 (some centres not stated)")
"F"
>>> label("CCCCCCCCNC")
"F"
>>> label("CCOC(C)OCC")
"F"
>>> label("CC(CN=Cc1ccccc1O)N=Cc1ccccc1O (configuration not stated)")
"F"
>>> label("CCC(CC)C(=O)O")
"F"
>>> label("Cc1cc(SC2=C(O)C[C@@](CCc3ccc(N)cc3)(C(C)C)OC2=O)c(C(C)(C)C)cc1CO")
"F"
>>> label("O=C(N[C@@H](Cc1ccccc1)[C@@H](O)C(=O)N1C[C@@H](O)[C@@H](O)C1)c1cc2cc(Cl)ccc2[nH]1")
"F"
>>> label("CC(C)CC(C)(C)C")
"T"
>>> label("OCCOc1cccc(OCCO)c1")
"F"
>>> label("O=c1[nH]nc(-c2ccc([N+](=O)[O-])o2)o1")
"F"
>>> label("COC(=O)Cc1cccc2ccccc12")
"F"
>>> label("O=c1[nH][nH]c2ccccc12")
"F"
>>> label("COc1cccc([C@H](O)C2CCN(CCc3ccc(F)cc3)CC2)c1OC")
"F"
>>> label("O=C(O)c1cccc(C(=O)O)c1C(=O)O")
"T"
>>> label("CCCCCO")
"F"
>>> label("CC(C(=O)O)c1ccc2c(c1)Cc1cccnc1O2 (configuration not stated)")
"F"
>>> label("CCCCCCOC(=O)c1ccccc1")
"T"
>>> label("CCC[Si](OC)(OC)OC")
"F"
>>> label("O=C(O)CCc1nc2ccccc2[nH]1")
"F"
>>> label("O=C(O)c1cc(C(=O)O)cc([N+](=O)[O-])c1")
"F"
>>> label("CC(C(=O)O)c1ccc(/C=C2\\CCCCC2=O)cc1 (configuration not stated)")
"F"
>>> label("CC(=O)OCC(=O)[C@@]1(O)CC[C@H]2[C@@H]3CCC4=CC(=O)C=C[C@]4(C)[C@@]3(F)[C@@H](O)C[C@@]21C")
"F"
>>> label("CC(C)(C(=O)O)c1ccc(C(O)CCCN2CCC(C(O)(c3ccccc3)c3ccccc3)CC2)cc1 (configuration not stated)")
"F"
>>> label("C=Cc1ccc(C=C)cc1")
"F"
>>> label("O=C(O)c1ccncc1")
"F"
>>> label("C/C=C1\\[C@H]2C=C(C)C[C@]1(N)c1ccc(=O)[nH]c1C2")
"F"
>>> label("O=C(c1ccc(Cl)cc1)c1ccc(Cl)cc1")
"F"
>>> label("O=C(O)c1c2ccccc2cc2ccccc12")
"F"
>>> label("O=C(Nc1ccccc1)c1cc([N+](=O)[O-])ccc1Cl")
"F"
>>> label("CCCC1CCCC(=O)O1 (configuration not stated)")
"F"
>>> label("SCCOCCOCCS")
"F"
>>> label("CCCCCCCCCCCCSCCOCCO")
"F"
>>> label("C=CC(C)(O)CC/C=C(/C)CCC=C(C)C (configuration not stated)")
"F"
>>> label("Cc1ccc2ccccc2c1[N+](=O)[O-]")
"F"

Data provenance: PubChem BioAssay (Tox21)
